- Test system: SW-620 colon
- PROTOCOL_TEXT: NCI tumour cell line growth inhibition, 48 h
Answer each item with its documented TGI.

Please review the entries below; each comes with its answer.
C1CCN(c2nsc(N3CCCCC3)n2)CC1 :: > 100 µM
Cc1sc2nc(-c3cc([N+](=O)[O-])c(Cl)cc3Cl)c(/C=N/N=C(N)N)n2c1C :: 69.3 µM
O=[N+]([O-])c1ccc(N/N=C/c2c(O)ccc3ccccc23)nc1 :: > 100 µM
COc1ccc2c(Nc3ccc(NS(C)(=O)=O)cc3)c3ccccc3nc2c1 :: 3.29 µM

Each of the following entries comes with a recorded value; kindly state TGI for each.
1. Cc1nc2ccc(Nc3nc(NCCN4CCOCC4)nc(Nc4ccc(F)cc4)n3)cc2n1Cc1ccccc1
2. COC(=O)C1=C(C)NC2(O)C=CC(=O)C3C(=O)N(c4ccccc4)C(=O)C132 (centres undefined)

Response line:
1. 10.7 µM
2. > 100 µM
